Attribution: PubChem BioAssay AID652039

# measurement target: Kallikrein-7 (Homo sapiens)
# test details: activation of human kallikrein-7 proenzyme – biochemical, fluorescence intensity, primary screen (AID 652039)
# applied conditions: purified proKLK7, EDANS-DABCYL substrate fluorescence; at 7 µM; 100% is mature enzyme control, 0% vehicle
The whole screen tested about 370,000 compounds, of which about 3,300 (0.89%) were called active.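 How the source made its calls: active means activation above the mean of all tested compounds plus 3 SD, computed per campaign excluding outliers beyond control limits (cut at about 13% in these data); inactive means the rest.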 The full list was thinned out, with actives kept by preference.
Labels: TRUE (active), FALSE (inactive)

>>> answer_label("C=CCN1[C@H](CC(C)C)COc2cccc(N3CCCC3)c2S1(=O)=O")
"FALSE"
>>> answer_label("O=C(OC12CCCN(C1)/C(=C/c1cccnc1)C2)C1CCCC1 (stereo unspecified)")
"FALSE"
>>> answer_label("COc1cc2c(cc1OC)CC1(CCCCC1)N=C2")
"TRUE"
>>> answer_label("Cc1cc2nc(C(F)(F)F)cc(-c3cccs3)n2n1")
"FALSE"
>>> answer_label("CCOC(=O)CSc1nc2c(c(=O)n(Cc3ccccc3Cl)c(=O)n2C)n1C")
"FALSE"
>>> answer_label("O=C(CSc1nnc(-c2ccccn2)n1-c1ccc(Cl)cc1)Nc1ccccc1-c1ccccc1")
"FALSE"
>>> answer_label("O=C(CSc1nc2ccccc2s1)N=Nc1c(O)[nH]c2ccccc12")
"FALSE"
>>> answer_label("CCN(CC(=O)Nc1c(F)cccc1F)C(=O)c1ccc(-c2ccccc2)cc1")
"FALSE"
>>> answer_label("CCC(=O)Nc1ccc2c(c1)C(=O)N(C)[C@@H]1CC[C@@H](CC(=O)NCCc3ccccc3)O[C@H]1CO2")
"FALSE"
>>> answer_label("CCCCNC(=O)CCn1c(=O)c2ccccc2n(Cc2cc(C)ccc2C)c1=O")
"FALSE"
>>> answer_label("Oc1ccc2ccc3cccc[n+]3c2c1")
"TRUE"
>>> answer_label("Cc1nc2ccccn2c(=O)c1NC(=O)c1cccs1")
"FALSE"
>>> answer_label("COc1ccccc1C(=O)NC1CCCCN(C(C)C)C1=O (stereo unspecified)")
"FALSE"
>>> answer_label("COC(=O)[C@H](C(C)C)N(CCCc1cn(Cc2ccccc2)nn1)S(=O)(=O)c1ccc(F)cc1Br")
"FALSE"
>>> answer_label("CC(=O)Nc1nc2ncccn2c1-c1ccc(C(F)(F)F)cc1")
"TRUE"
>>> answer_label("CC[C@@H](C)[C@H](NC(=O)CCc1c(C)c2cc3c4c(oc3c(C)c2oc1=O)CCCC4)C(=O)O")
"FALSE"
>>> answer_label("Cc1c(CC(=O)NCC(=O)NCC(=O)O)c(=O)oc2cc3oc4c(c3cc12)CCCC4")
"FALSE"
>>> answer_label("CN(CCO)c1cccc2c1S(=O)(=O)N(Cc1cn(Cc3ccc(C(F)(F)F)cc3)nn1)Cc1ccccc1O2")
"FALSE"
>>> answer_label("COC(=O)c1cc(S(=O)(=O)N2CCN(c3ccccc3C)CC2)cn1C")
"FALSE"
>>> answer_label("CC(C)Oc1cc(F)ccc1-c1cc(C(=O)Nc2cccc(Cl)c2)[nH]n1")
"FALSE"
>>> answer_label("N#CCC[C@H]1CC[C@]2(CCCN(Cc3ccc(Cl)cc3)C2)O1")
"FALSE"

----------
# measurement target: Kallikrein-7 (Homo sapiens) (UniProt P49862)
# Sequence (P49862 whole entry, looked up): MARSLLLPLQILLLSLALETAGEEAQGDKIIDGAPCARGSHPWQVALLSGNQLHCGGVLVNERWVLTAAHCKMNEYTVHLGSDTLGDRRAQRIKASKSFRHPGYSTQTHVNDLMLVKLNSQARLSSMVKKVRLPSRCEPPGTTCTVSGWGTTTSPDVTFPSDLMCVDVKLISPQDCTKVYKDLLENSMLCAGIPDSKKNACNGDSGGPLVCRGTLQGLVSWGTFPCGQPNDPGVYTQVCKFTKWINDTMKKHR
# test details: activation of human kallikrein-7 proenzyme – biochemical, fluorescence intensity, primary screen (AID 652039)
# applied conditions: purified proKLK7, EDANS-DABCYL substrate fluorescence; at 7 µM; 100% is mature enzyme control, 0% vehicle
Hit rate of the full screen: of about 370,000 compounds, about 3,300 (0.89%) were called active.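 How the source made its calls: active means activation above the mean of all tested compounds plus 3 SD, computed per campaign excluding outliers beyond control limits (cut at about 13% in these data); inactive means the rest.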 Only a selection was taken, and actives are over-represented in it overall.
Outcomes: 1 (yes) = active, 0 (no) = inactive

>>> answer_label("COc1cccc(N(C)C(=O)[C@@H](C)[C@@H](O)c2ccc3ccccc3c2)c1")
"0 (no)"
>>> answer_label("Clc1cccc(Cl)c1OCCOCCNCc1ccccc1")
"0 (no)"
>>> answer_label("CCCCNC(=O)C[C@H]1C[C@@]2(C(=O)OC)C(=C[C@H](COCc3ccccc3)O[C@@H]2C)N(Cc2ccc(Cl)cc2Cl)C1=O")
"0 (no)"
>>> answer_label("C=CCN1C(=O)[C@@H](CC(=O)NCCCCc2ccccc2)[C@]2(C(=O)OCC)CCCCC/C=C/12")
"0 (no)"
>>> answer_label("COC(=O)C[C@H]1CC[C@H]2[C@H](COc3ccc(NC(=O)C4CC4)cc3C(=O)N2C)O1")
"0 (no)"
>>> answer_label("CN(CC(=O)Nc1ccc(Cl)cc1)CC(=O)Nc1cccc2ccccc12")
"0 (no)"
>>> answer_label("Cc1c(NC(=O)C(C)OC(=O)c2ccccc2O)c(=O)n(-c2ccccc2)n1C (stereo not given)")
"0 (no)"
>>> answer_label("Clc1ccc(-n2c(COc3ccccc3)nnc2SCc2nc3ccccc3[nH]2)cc1")
"0 (no)"
>>> answer_label("COc1ccccc1NC(=O)C(C)OC(=O)c1ccc(-n2cnnn2)cc1 (stereo not given)")
"0 (no)"
>>> answer_label("Cc1cc(C(=O)NN=C/C=C/c2ccco2)n[nH]1")
"0 (no)"
>>> answer_label("CC(C)CSc1nnc(-c2cccnc2)n1Cc1ccccc1")
"0 (no)"
>>> answer_label("CN(CC(=O)NCCc1ccccn1)S(=O)(=O)c1ccc(Cl)cc1")
"0 (no)"
>>> answer_label("CCCOc1ccc2c3c(c(=O)oc2c1OCCC)CCC3")
"0 (no)"
>>> answer_label("COc1cccc(C(=O)Nc2cc3c(cc2Br)OCCCO3)c1")
"0 (no)"
>>> answer_label("CCOC(=O)C1=C(O)/C(=C/c2ccc(OCC(=O)Nc3ccc(C)cc3)cc2)N=C1C")
"1 (yes)"
>>> answer_label("O=C(Nc1nc2ccc(Cl)cc2s1)c1cc(-c2ccc(Cl)cc2)nc2ccccc12")
"0 (no)"
>>> answer_label("Cc1nc(SCC(=O)NC2CCCCC2C)c(C#N)c(C)c1C (stereo not given)")
"0 (no)"
>>> answer_label("COc1ccc(S[C@]2(C(=O)N(C)C)CC(=O)N(c3ccc(OC)cc3)[C@@H]2c2ccc(OC)cc2)cc1")
"0 (no)"
>>> answer_label("CCn1c(=N)c(S(=O)(=O)c2ccc(F)cc2)cc2c(=O)n3ccccc3nc21")
"0 (no)"
>>> answer_label("CCOC(=O)N1CCN(C(=O)C[C@@H]2C(=O)N(CCc3ccc(Cl)cc3)C3=CCCC[C@]32C(=O)OCC)CC1")
"0 (no)"
>>> answer_label("COC(=O)c1c(C)c(C)nc(N)c1C#N")
"1 (yes)"
>>> answer_label("CCOC(=O)N1CCN(C(=O)C[C@H]2C[C@@]3(C(=O)OC)C(=C[C@H](C(C)(C)C)O[C@@H]3C)N(Cc3ccc(Cl)cc3Cl)C2=O)CC1")
"0 (no)"
>>> answer_label("CCCCN(CCCC)CC(O)Cn1c2ccccc2c(=O)c2ccccc21 (stereo not given)")
"1 (yes)"
>>> answer_label("CCCCN(C)CCCNC(=O)c1cc(-c2cccs2)nc2ccccc12")
"1 (yes)"
>>> answer_label("CCOC(=O)[C@]12CCCC3=C1N(CCC3)C(=O)[C@@H](CC(=O)NCc1cccs1)C2")
"0 (no)"
>>> answer_label("CC(OC(=O)c1ccccc1NCCO)C(=O)Nc1ccnn1C(C)C (stereo not given)")
"1 (yes)"
>>> answer_label("Cn1cccc1/C=N/NC(=O)CNc1cccc2ccccc12")
"1 (yes)"
>>> answer_label("CCS(=O)(=O)Nc1cc(C(=O)OC)ccc1C(=O)OC")
"1 (yes)"
>>> answer_label("CCN(CC)C(=O)CC[C@H]1CC[C@]2(CCCN(Cc3ccc(Cl)cc3)C2)O1")
"0 (no)"
>>> answer_label("CCOC(=O)c1cc2c(=O)n3ccccc3nc2n(CC(C)C)c1=NC(=O)c1c(-c2c(F)cccc2Cl)noc1C")
"0 (no)"
>>> answer_label("CC(C)CNc1cccc2c1S(=O)(=O)N(Cc1cn(Cc3ccc(Cl)cc3)nn1)Cc1ccccc1O2")
"0 (no)"
>>> answer_label("CCC(=O)OCCCN1C(=O)CCC12CCC(c1ccccc1)CC2 (stereo not given)")
"0 (no)"
>>> answer_label("C=CCn1c(SCC(N)=O)nnc1-c1ccccc1OC")
"0 (no)"
>>> answer_label("CN(CCc1ccccn1)S(=O)(=O)c1ccc2c3c(cccc13)C(=O)N2")
"1 (yes)"
>>> answer_label("Cc1cc(NS(=O)(=O)c2ccc(NC(=O)CSc3nnc(-c4ccc(C(C)(C)C)cc4)n3Cc3ccco3)cc2)nc(C)n1")
"0 (no)"
>>> answer_label("C=CCN1C(=O)[C@@H](CC(=O)NCC2CCCCC2)[C@]2(C(=O)OC)CCCCC=C12")
"0 (no)"
>>> answer_label("CN(C)c1ccc(NC(=O)NC2CCCCN(Cc3ccc(Cl)cc3)C2=O)cc1 (stereo not given)")
"0 (no)"
>>> answer_label("COCC(=O)Nc1nnc(COc2ccccc2)s1")
"1 (yes)"
>>> answer_label("Cc1ccc(Cn2cc(CN3[C@@H](CC(C)C)COc4ccc(Cl)cc4S3(=O)=O)nn2)cc1")
"0 (no)"
>>> answer_label("Cc1ccc(Cn2cc(CN3[C@@H](C)COc4cc(Br)ccc4S3(=O)=O)nn2)cc1")
"0 (no)"
